assaySystem: TSLP, Q969D9
procedureSummary: Kd (SPR)
observable: Kd (nM)
Return type: number; implicit unit nM.

Check out these entries, answers already filled in.
unnamed (protein) chain 1: QMQLVESGGGVVQPGRSLRLSCAASGFTFSTFAMHWVRQAPGKGLEWVAVIWYDGSNKHYADSVKGRFTITRDNSKNTLNLQMNSLRAEDTAVYYCARAPRYDWYLEAFDVWGQGTMVTVSS chain 2: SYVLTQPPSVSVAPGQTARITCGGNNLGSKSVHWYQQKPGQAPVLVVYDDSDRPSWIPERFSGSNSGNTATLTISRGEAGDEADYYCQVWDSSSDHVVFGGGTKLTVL: 157
unnamed (protein) chain 1: QMQLVESGGGVVQPGRSLRLSCAASGFTFSTFAMHWVRQAPGKGLEWVAVIWYDGSNKHYADSVKGRFTITRDNSKNTLNLQMNSLRAEDTAVYYCARAPRYYDYWEAFDVWGQGTMVTVSS chain 2: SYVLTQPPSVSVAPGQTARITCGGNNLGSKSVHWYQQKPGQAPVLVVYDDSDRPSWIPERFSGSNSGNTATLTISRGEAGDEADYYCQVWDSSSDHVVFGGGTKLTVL: 221

Note: attention shifts to another entry.
Looking up unnamed (protein) chain 1: QMQLVESGGGVVQPGRSLRLSCAASGFTFRTYGMHWVRQAPGKGLEWVAVIWYDGSNKHYADSVKGRFTITRDNSKNTLNLQMNSLRAEDTAVYYCARAPRYDDDWEAFDVWGQGTMVTVSS chain 2: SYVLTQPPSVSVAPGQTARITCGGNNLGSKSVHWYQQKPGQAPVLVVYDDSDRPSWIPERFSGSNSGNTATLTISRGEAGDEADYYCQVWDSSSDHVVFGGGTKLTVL , I see its Kd listed as 82.7

Values from the FLAb antibody collection (doi:10.1101/2023.12.08.570889)
